# tgt: Cytochrome P450 2D6 (Homo sapiens) (UniProt P10635)
# Sequence (P10635 whole entry, looked up): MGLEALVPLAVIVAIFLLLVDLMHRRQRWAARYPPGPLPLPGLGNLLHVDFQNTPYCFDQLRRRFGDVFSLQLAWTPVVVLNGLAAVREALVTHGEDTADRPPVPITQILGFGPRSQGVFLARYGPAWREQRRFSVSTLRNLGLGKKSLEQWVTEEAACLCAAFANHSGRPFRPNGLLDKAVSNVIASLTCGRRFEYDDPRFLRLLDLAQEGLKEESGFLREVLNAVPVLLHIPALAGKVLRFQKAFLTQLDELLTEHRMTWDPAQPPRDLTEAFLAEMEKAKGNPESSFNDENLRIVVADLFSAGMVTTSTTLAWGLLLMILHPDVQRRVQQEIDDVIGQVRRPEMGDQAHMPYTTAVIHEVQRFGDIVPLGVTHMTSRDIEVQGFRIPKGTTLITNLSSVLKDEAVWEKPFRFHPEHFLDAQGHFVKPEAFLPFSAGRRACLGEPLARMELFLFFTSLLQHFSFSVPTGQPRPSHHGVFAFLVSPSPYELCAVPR
# method summary: Cytochrome panel assay with activity outcomes
# condition context: recombinant CYP, pro-luciferin dealkylation, luminescence, p450-cyp2d6; series mostly up to 57.1 µM
In all, about 16,000 compounds went through this assay and about 2,600 (16%) were called active. Not shown: some 20% with an inconclusive outcome. The list is a sample of the results.
measurement label: AC50

Past entries and their recorded results:
# get_value(readout='AC50', item= COc1ccc(OC)c2[nH]c(=O)c(CCNC(=O)c3ccc(S(=O)(=O)N(C)C)cc3)cc12 )
inactive

# get_value(readout='AC50', item= c1csc(CNc2ccnc(-c3ccc4c(c3)OCO4)n2)c1 )
501 nM (active)

# get_value(readout='AC50', item= O=C(/C=C/c1ccc(Cl)cc1)NCCSc1ccccc1 )
inactive

# get_value(readout='AC50', item= CCN(CC)CC#CCC(C)(c1ccccc1)c1ccccc1 )
891 nM (active)

# get_value(readout='AC50', item= Cc1ccccc1N1CCN(S(=O)(=O)C[C@@]23CC[C@H](C[C@H]2NC(=O)[C@@H](N)CCS(C)(=O)=O)C3(C)C)CC1 )
inactive

New cases:
# get_value(readout='AC50', item= COc1cc(NC(=S)Nc2ccc(S(=O)(=O)N3CCOCC3)cc2)cc(OC)c1OC )
inactive

# get_value(readout='AC50', item= COCCn1c(=O)c(-c2cccc(C#N)c2)nc2cnc(Oc3ccccc3)nc21 )
inactive

# get_value(readout='AC50', item= CCCCNCCOCCSc1ccc(Cl)cc1 )
1580 nM (active)

# get_value(readout='AC50', item= COc1ccccc1N1CCN(c2nc3c(C)cccn3c(=O)c2C=O)CC1 )
inactive

# get_value(readout='AC50', item= COc1ccc(C(=O)N2CCC3(CC2)CN(C(=O)Nc2cccc(C#N)c2)C3)cc1 )
inactive

# get_value(readout='AC50', item= CCOC(=O)COc1ccc(/C=C/[N+](=O)[O-])c(OCC(=O)OCC)c1 )
inactive
